# TEST_TARGET: Elastase (Pseudomonas aeruginosa (strain ATCC 15692 / PAO1 / 1C / PRS 101 / LMG12228), UniProt P14756)
# Sequence (P14756 whole entry): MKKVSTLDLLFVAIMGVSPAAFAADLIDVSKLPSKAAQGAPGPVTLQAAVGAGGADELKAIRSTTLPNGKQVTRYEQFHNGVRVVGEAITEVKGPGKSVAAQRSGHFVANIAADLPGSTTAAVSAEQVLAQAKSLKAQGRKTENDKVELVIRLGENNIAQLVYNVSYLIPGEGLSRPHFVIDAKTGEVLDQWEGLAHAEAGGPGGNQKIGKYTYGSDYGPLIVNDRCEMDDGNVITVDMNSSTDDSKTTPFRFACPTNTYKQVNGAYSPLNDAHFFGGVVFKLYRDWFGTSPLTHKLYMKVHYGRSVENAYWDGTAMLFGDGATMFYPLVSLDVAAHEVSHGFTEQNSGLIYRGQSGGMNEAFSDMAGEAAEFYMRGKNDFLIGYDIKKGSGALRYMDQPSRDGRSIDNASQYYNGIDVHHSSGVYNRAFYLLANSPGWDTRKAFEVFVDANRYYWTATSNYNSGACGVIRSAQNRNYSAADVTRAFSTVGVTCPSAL
# PROCEDURE_DETAILS: Inhibition of Pseudomonas aeruginosa LasB by fluorimetric assay in buffer of pH 7.2
# CONDITIONS: read-out: Ki
hey, just use rule met if measured Ki is less than 60 µM, otherwise rule not met

### Prompt Is Ki of `CC(C)[C@H](NC(=O)[C@H](CC(N)=O)NC(=O)CS)C(N)=O` strictly below 60 µM?
### Response rule not met

### Prompt # TODO verify Ki < 60 µM strictly for this compound: `C[C@@H](O)[C@H](NC(=O)CS)C(=O)N[C@@H](Cc1c[nH]c2ccccc12)C(N)=O`
### Response rule not met

### Prompt Determine if `NC(=O)[C@H](Cc1c[nH]c2ccccc12)NC(=O)CNC(=O)CS` shows Ki strictly lower than 60 µM.
### Response rule not met

### Prompt Quick check: Ki of `NC(=O)CC[C@H](NC(=O)CS)C(=O)N[C@@H](Cc1c[nH]c2ccccc12)C(N)=O` under 60 µM?
### Response rule not met

### Prompt For `NC(=O)[C@H](Cc1ccccc1)NC(=O)CNC(=O)CS` , is the recorded Ki below the cut-off of 60 µM?
### Response rule met

### Prompt Input `CC(C)[C@H](NC(=O)[C@@H]1CCCN1C(=O)CS)C(N)=O` ; condition: Ki strictly below 60 µM. Does it hold?
### Response rule not met

### Prompt Problem: For the compound `CC(C)[C@H](NC(=O)CS)C(=O)N[C@@H](Cc1ccccc1)C(N)=O` , is Ki under 60 µM?
### Response rule not met

### Prompt Field: below-cutoff. Rule: recorded Ki strictly less than 60 µM. Subject: `CC(C)C[C@H](NC(=O)CS)C(=O)N[C@@H](CCCNC(=N)N)C(N)=O`
### Response rule not met

### Prompt Answer whether the compound `CC(C)C[C@H](NC(=O)[C@@H]1CCCN1C(=O)CS)C(N)=O` has Ki strictly less than 60 µM
### Response rule not met

### Prompt Does this compound meet the criterion Ki < 60 µM? `NCCCC[C@H](NC(=O)[C@H](CC(N)=O)NC(=O)CS)C(N)=O`
### Response rule not met

Others:
### Prompt Say whether its Ki is strictly beneath 60 µM. Entry: `N=C(N)NCCC[C@H](NC(=O)[C@@H]1CCCN1C(=O)CS)C(N)=O`
### Response rule met

### Prompt Strictly below 60 µM in Ki? `NCCCC[C@H](NC(=O)[C@H](CCC(N)=O)NC(=O)CS)C(N)=O`
### Response rule not met
